MIC for assorted compounds
System: up to 32 different microorganisms
assay details: in vitro antibacterial activity (MIC), agar dilution on Brain Heart Infusion (BHI) agar with Steers replicator
Assay type: cell-based
run parameters: Streptococcus Pneumonia 5649 (code ZZA); unit assumed
Provide only the numeric value, understood in µg/mL.

Known results for compounds:
compound	MIC [µg/mL]
CC[C@H]1OC(=O)[C@H](C)C(=O)[C@H](C)[C@@H](O[C@@H]2O[C@H](C)C[C@H](N(C)C)[C@H]2O)[C@@](C)(OCCNCc2ccccc2)C[C@@H](C)C(=O)[C@H](C)[C@@H](O)[C@]1(C)O	4
CC[C@H]1OC(=O)[C@H](C)C(=O)[C@H](C)[C@@H](O[C@@H]2O[C@H](C)C[C@H](N(C)C)[C@H]2O)[C@@](C)(OCC=Cc2cnc3ccccc3c2)C[C@@H](C)C(=O)[C@H](C)[C@H]2N(C)C(=O)O[C@]12C	0.25
CC[C@H]1OC(=O)[C@H](C)C(=O)[C@H](C)[C@@H](O[C@@H]2O[C@H](C)C[C@H](N(C)C)[C@H]2O)[C@@](C)(OCCNCc2ccncc2)C[C@@H](C)C(=O)[C@H](C)[C@@H](O)[C@]1(C)O	2
CC[C@H]1OC(=O)[C@H](C)C(=O)[C@H](C)[C@@H](O[C@@H]2O[C@H](C)C[C@H](N(C)C)[C@H]2O)[C@@](C)(OCC=Cc2ccccc2)C[C@@H](C)C(=O)[C@H](C)[C@H]2OC(=O)O[C@@]21C	0.5

Then this compound:
### Prompt # get_value(readout='MIC', item= CCC1OC(=O)C(C)C(=O)C(C)C(OC2OC(C)CC(N(C)C)C2O)C(C)(OCC=Cc2ccc3c(c2)OCO3)CC(C)C(=O)C(C)C2NC(=O)OC12C (centres unmarked) )
### Response 1

Data origin: patent USRE39591E1
